# self-cleavage per entry
B1: CPEB3 Ribozyme (parent)
chain: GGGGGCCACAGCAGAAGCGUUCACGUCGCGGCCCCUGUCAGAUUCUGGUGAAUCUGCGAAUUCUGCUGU

Variants of: B1
Test: self-cleavage, relative activity (ratio to wild type); higher = more cleavage; co-transcriptional

Sequence variant | self-cleavage
C33U U43G | 0.678
A42C U43A | 0.778
G58C U69G | 1.05
A15U C33U | 0.912
G14A C29U | 0.113
A23C A51C | 0.942
G30U U46C | 0.39
C22A U62G | 0.112
G2A U64A | 0.115
C33G G58U | 0.821
G5A U49A | 0.926
